Molecular target: RSV F protein of RS virus subtype B strains (2007-2 and Z)
Experiment: cell-based or functional assay
observable: IC50 values (ng/ml), RS virus neutralization, HEp2 cells, subtype B (ng/mL)
Your answer should be a plain number; it is taken to be in ng/mL.

Study these solved cases before continuing.
[
  {
    "binder": "D25 (B63D10-D25), monoclonal antibody from the B cell line (culture supernatant or purified from it) (antibody, V domains shown) VH: QVQLVQSGAEVKKPGSSVMVSCQASGGPLRNYIINWLRQAPGQGPEWMGGIIPVLGTVHYAPKFQGRVTITADESTDTAYIHLISLRSEDTAMYYCATETALVVSTTYLPHYFDNWGQGTLVTVSS VL: DIQMTQSPSSLSAAVGDRVTITCQASQDIVNYLNWYQQKPGKAPKLLIYVASNLETGVPSRFSGSGSGTDFSLTISSLQPEDVATYYCQQYDNLPLTFGGGTKVEIKRTV",
    "value.reported": 14.3
  },
  {
    "binder": "AM23 (antibody, V domains shown) VH: EVQLVESGGNVVKPGTSLRLSCAATGFNFHNYGMNWVRQAPGKGLEWVAVVWYDGSKKYYADSVTGRFAISRDNSKNTLYLQMNSLRVEDTAVYYCVRDKVGPTPYFDSWGQGTLVTVSS VL: SYVLTQPPSVSLAPGGTAAITCGRNNIGSETVHWYQQKPGQAPVLVVYDDDDRPSGIPERFSGSNSGNTATLTISRVEAGDEADYYCQVWDRSNYHQVFGGGTKLTV",
    "value.reported": 191
  }
]

Consider the additional binder presented here.
Q) Given the binder AM16 (antibody, V domains shown) VH: EVQLVETGGGLAQPGGSLRLSCAASGFTFSSYNMNWVRQAPGKGLEWVSHISAGSSYIYYSDSVKGRFTVSRDNVRNSVYLQMNSLRAADTAVYYCAREDYGPGNYYSPNWFDPWGQGTLVTVSS VL: QSVVTQPPSVSGAPGQRVTISCTGSSSNIGAGYDVHWYQQLPGTAPKLLIYGNTNRPSGVSDRFSGSKSGTSASLAITGLQAEDEADYYCHSYDRSLSGSVFGGGTKLTV , what is its reported IC50 values (ng/ml), RS virus neutralization, HEp2 cells, subtype B?
A) 125
